# system_name: human emopamil binding protein and human 7-dehydrocholesterol reductase co-expressing cells (hEBP-DHCR7 membrane) (Homo sapiens (Human))
# Sequence (Q15125 whole entry): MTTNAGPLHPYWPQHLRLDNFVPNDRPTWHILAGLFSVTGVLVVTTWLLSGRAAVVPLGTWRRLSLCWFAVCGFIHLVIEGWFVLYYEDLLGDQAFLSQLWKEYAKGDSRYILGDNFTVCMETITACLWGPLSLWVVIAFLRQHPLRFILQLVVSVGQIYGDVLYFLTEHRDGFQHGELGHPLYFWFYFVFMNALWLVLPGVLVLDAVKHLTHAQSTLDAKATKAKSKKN
value_kind: Ki (nM)

Q: Name the recorded Ki for O=S1(=O)CC2(CCN(C3CC[C@H](c4nc(-c5cccc(C(F)(F)F)n5)nn4C4CC4)C3)CC2)C1 (stereo in doubt) [42D*] .
Result: 670

Q: Name the recorded Ki for CC(C)n1cc(C(F)(F)F)nc1[C@H]1CC[C@@H](N2CCC3(C2)CS(=O)(=O)C3)C1 (single isomer, unassigned) [20C*] .
Result: 420

Q: Name the recorded Ki for CCn1nc(-c2ccc(C(F)(F)F)nc2)nc1[C@H]1CC[C@H](N2CCC3(CC2)CS(=O)(=O)C3)CC1 (stereo in doubt) [43A*] .
Result: 125

(P) O=S1(=O)CC2(CCN(C3CCN(c4ccc(C(F)(F)F)nc4)CC3)C2)C1 [Compound 5]
(Q) O=S1(=O)CC2(CCN(C3CC[C@H](c4nc(-c5cccc(C(F)(F)F)n5)nn4C4CC4)C3)CC2)C1 (stereo in doubt) [42C*]
(R) CC(C)n1nc(C(F)(F)F)cc1[C@@H]1CCC[C@@H](N2CCC3(CC2)CS(=O)(=O)C3)C1 (single isomer, unassigned) [78A*]
Q: Rank the 3 molecules: largest Ki first, smallest last. Reply with the item labels sorted in the order that was asked for.
Result: Q, P, R
(Q: 1180 nM, P: 148 nM, R: 71 nM)
